Just for reference, patent US20260069725A1 is where these values come from.

System: LNCaP tumor bearing mice
Assay: SPECT/CT scanning, exposure of 177Lu labeled compounds in tumor and tissues
Format: in vivo
Settings: labeled with 177Lu; about 7.4 MBq (200 μCi) tail vein; scans 1-72 h
Record form. Attribute: Exposure in Muscle. Fill in for each entry.
Please respond with the number in h*ID %/g and leave the unit unwritten.

Inquiry: // returns reported Exposure in Muscle for input `COc1ccc(C(=O)NCCN2CCN(C(=O)CCC(=O)N[C@@H](CCCCNC(=O)CN3CCN(CC(=O)O)CCN(CC(=O)O)CCN(CC(=O)O)CC3)C(=O)N3CCc4cc(C(=O)N[C@@H](Cc5ccc6ccccc6c5)C(=O)NCCCC[C@H](NC(=O)N[C@@H](CCC(=O)O)C(=O)O)C(=O)O)ccc4C3)CC2)cc1`
Reply text: 37.2

Inquiry: What do you get for O=C(O)CCCCCCCCCCC(=O)N[C@@H](CCCCNC(=O)CN1CCN(CC(=O)O)CCN(CC(=O)O)CCN(CC(=O)O)CC1)C(=O)NCC1CCC(C(=O)N[C@@H](Cc2ccc3ccccc3c2)C(=O)NCCCC[C@H](NC(=O)N[C@@H](CCC(=O)O)C(=O)O)C(=O)O)CC1 (stereo partly shown) ?
Reply text: 35.74

Inquiry: What do you get for COc1ccc(CCCC(=O)NC(Cc2c[nH]cn2)C(=O)N[C@@H](CCCCNC(=O)CN2CCN(CC(=O)O)CCN(CC(=O)O)CCN(CC(=O)O)CC2)C(=O)NCC2CCC(C(=O)N[C@@H](Cc3ccc4ccccc4c3)C(=O)NCCCC[C@H](NC(=O)N[C@@H](CCC(=O)O)C(=O)O)C(=O)O)CC2)cc1 (stereo partly shown) ?
Reply text: 32.14

Inquiry: What do you get for COc1ccc(CCCC(=O)NC(CCCCN)C(=O)N[C@@H](CCCCNC(=O)CN2CCN(CC(=O)O)CCN(CC(=O)O)CCN(CC(=O)O)CC2)C(=O)NCC2CCC(C(=O)N[C@@H](Cc3ccc4ccccc4c3)C(=O)NCCCC[C@H](NC(=O)N[C@@H](CCC(=O)O)C(=O)O)C(=O)O)CC2)cc1 (stereo partly shown) ?
Reply text: 17.82

----------
Record form. Attribute: Exposure in Heart. Fill in for each entry.
System: LNCaP tumor bearing mice
Assay: SPECT/CT scanning, exposure of 177Lu labeled compounds in tumor and tissues
Assay type: in vivo
Settings: labeled with 177Lu; about 7.4 MBq (200 μCi) tail vein; scans 1-72 h

Inquiry: // returns reported Exposure in Heart for input COc1ccc(C(=O)N[C@@H](CCCCNC(=O)CN2CCN(CC(=O)O)CCN(CC(=O)O)CCN(CC(=O)O)CC2)C(=O)NCC2CCC(C(=O)N[C@@H](Cc3ccc4ccccc4c3)C(=O)NCCCC[C@H](NC(=O)N[C@@H](CCC(=O)O)C(=O)O)C(=O)O)CC2)cc1 (some centres unmarked)
Reply text: 23.61 h*ID %/g

Inquiry: What do you get for `COc1ccc(C(=O)NCCN2CCN(C(=O)CCC(=O)N[C@@H](CCCCNC(=O)CN3CCN(CC(=O)O)CCN(CC(=O)O)CCN(CC(=O)O)CC3)C(=O)N3CCc4cc(C(=O)N[C@@H](Cc5ccc6ccccc6c5)C(=O)NCCCC[C@H](NC(=O)N[C@@H](CCC(=O)O)C(=O)O)C(=O)O)ccc4C3)CC2)cc1` ?
Reply text: 40.58 h*ID %/g
